Provenance of the data: the NIST ThermoML archive (doi:10.1021/je060339m)

Details: 328.15 K; 1000 kPa; Liquid
± gives the expanded uncertainty stated by the source.
Assignment: determine reported mass density for the given compounds.
Note: state the figure and append the unit.

Q) Provide only the value of recorded mass density for CCCOC(C)=O [propyl ethanoate]
A) 848.7 ± 3.4 kg/m3

Q) Provide only the value of recorded mass density for CCOC(C)=O [ethyl acetate]
A) 857.8 ± 3.2 kg/m3

Q) Provide only the value of recorded mass density for CCCCOC(C)=O [butyl ethanoate]
A) 845.7 ± 3.3 kg/m3

Q) Provide only the value of recorded mass density for CCCCCOC(C)=O [pentyl ethanoate]
A) 843.2 ± 3.4 kg/m3

###

Details: 353.15 K; 15000 kPa; Liquid
measured-attribute: mass density (kg/m3)
Kindly provide the numeric value in kg/m3 only, without the unit symbol.

Q) Provide only the value of recorded mass density for CCOC(C)=O [ethyl acetate]
A) 844.3

Q) Provide only the value of recorded mass density for CCCOC(C)=O [propyl ethanoate]
A) 838.8

Q) Provide only the value of recorded mass density for CCCCCOC(C)=O [pentyl ethanoate]
A) 835

Q) Provide only the value of recorded mass density for CCCCOC(C)=O [butyl ethanoate]
A) 836.7

###

Assignment: determine reported mass density for the given molecules.
Conditions: 373.15 K; 10000 kPa; Liquid
Numbers after ± are expanded uncertainties.
Note: state the figure and append the unit.

Q) Provide only the value of recorded mass density for CCCCCOC(C)=O [pentyl ethanoate]
A) 808.2 ± 4.5 kg/m3

Q) Provide only the value of recorded mass density for CCCOC(C)=O [propyl ethanoate]
A) 809.8 ± 4.5 kg/m3

Q) Provide only the value of recorded mass density for CCCCOC(C)=O [butyl ethanoate]
A) 809.9 ± 4.4 kg/m3

Q) Provide only the value of recorded mass density for CCOC(C)=O [ethyl acetate]
A) 814.4 ± 4.4 kg/m3

###

Assignment: determine reported mass density for the given compounds.
Conditions: 318.15 K; 5000 kPa; Liquid
± gives the expanded uncertainty stated by the source.
Note: state the figure and append the unit.

Q) Provide only the value of recorded mass density for CCCOC(C)=O [propyl ethanoate]
A) 864.4 ± 3.9 kg/m3

Q) Provide only the value of recorded mass density for CCOC(C)=O [ethyl acetate]
A) 874.5 ± 3.7 kg/m3

Q) Provide only the value of recorded mass density for CCCCCOC(C)=O [pentyl ethanoate]
A) 856.4 ± 3.9 kg/m3

Q) Provide only the value of recorded mass density for CCCCOC(C)=O [butyl ethanoate]
A) 859.6 ± 3.7 kg/m3

###

Settings: 388.15 K; 1000 kPa; Liquid
Assignment: determine reported mass density for the given compounds.
Kindly provide the numeric value in kg/m3 only, without the unit symbol.

Q) Provide only the value of recorded mass density for CCCCCOC(C)=O [pentyl ethanoate]
A) 783.4

Q) Provide only the value of recorded mass density for CCOC(C)=O [ethyl acetate]
A) 778.2

Q) Provide only the value of recorded mass density for CCCOC(C)=O [propyl ethanoate]
A) 777.9

Q) Provide only the value of recorded mass density for CCCCOC(C)=O [butyl ethanoate]
A) 781.6

###

Assignment: determine reported mass density for the given compounds.
Details: 308.15 K; 30000 kPa; Liquid
± gives the expanded uncertainty stated by the source.
Note: state the figure and append the unit.

Q) Provide only the value of recorded mass density for CCCOC(C)=O [propyl ethanoate]
A) 897.2 ± 6.9 kg/m3

Q) Provide only the value of recorded mass density for CCCCOC(C)=O [butyl ethanoate]
A) 890 ± 6.7 kg/m3

Q) Provide only the value of recorded mass density for CCOC(C)=O [ethyl acetate]
A) 910.7 ± 6.7 kg/m3

Q) Provide only the value of recorded mass density for CCCCCOC(C)=O [pentyl ethanoate]
A) 885.2 ± 6.9 kg/m3

###

Details: 348.15 K; 15000 kPa; Liquid
Assignment: determine reported mass density for the given compounds.
Kindly provide the numeric value in kg/m3 only, without the unit symbol.

Q) Provide only the value of recorded mass density for CCCOC(C)=O [propyl ethanoate]
A) 844.1

Q) Provide only the value of recorded mass density for CCOC(C)=O [ethyl acetate]
A) 851.8

Q) Provide only the value of recorded mass density for CCCCOC(C)=O [butyl ethanoate]
A) 841.3

Q) Provide only the value of recorded mass density for CCCCCOC(C)=O [pentyl ethanoate]
A) 838.9

###

Assignment: determine reported mass density for the given compounds.
Details: 383.15 K; 5000 kPa; Liquid
Kindly provide the numeric value in kg/m3 only, without the unit symbol.

Q) Provide only the value of recorded mass density for CCCCOC(C)=O [butyl ethanoate]
A) 792.9

Q) Provide only the value of recorded mass density for CCCCCOC(C)=O [pentyl ethanoate]
A) 793.9

Q) Provide only the value of recorded mass density for CCCOC(C)=O [propyl ethanoate]
A) 791.2

Q) Provide only the value of recorded mass density for CCOC(C)=O [ethyl acetate]
A) 793.2

###

Conditions: 328.15 K; 25000 kPa; Liquid
measured-attribute: mass density (kg/m3)
Kindly provide the numeric value in kg/m3 only, without the unit symbol.

Q) Provide only the value of recorded mass density for CCCCCOC(C)=O [pentyl ethanoate]
A) 864.1

Q) Provide only the value of recorded mass density for CCCCOC(C)=O [butyl ethanoate]
A) 867.8

Q) Provide only the value of recorded mass density for CCCOC(C)=O [propyl ethanoate]
A) 873.3

Q) Provide only the value of recorded mass density for CCOC(C)=O [ethyl acetate]
A) 884.1

###

Conditions: 363.15 K; 2000 kPa; Liquid
measured-attribute: mass density (kg/m3)
Kindly provide the numeric value in kg/m3 only, without the unit symbol.

Q) Provide only the value of recorded mass density for CCOC(C)=O [ethyl acetate]
A) 813.5

Q) Provide only the value of recorded mass density for CCCCCOC(C)=O [pentyl ethanoate]
A) 808.7

Q) Provide only the value of recorded mass density for CCCCOC(C)=O [butyl ethanoate]
A) 808.8

Q) Provide only the value of recorded mass density for CCCOC(C)=O [propyl ethanoate]
A) 808.4

###

Settings: 363.15 K; 5000 kPa; Liquid
measured-attribute: mass density (kg/m3)
Kindly provide the numeric value in kg/m3 only, without the unit symbol.

Q) Provide only the value of recorded mass density for CCCOC(C)=O [propyl ethanoate]
A) 812.9

Q) Provide only the value of recorded mass density for CCOC(C)=O [ethyl acetate]
A) 818.5

Q) Provide only the value of recorded mass density for CCCCOC(C)=O [butyl ethanoate]
A) 812.8

Q) Provide only the value of recorded mass density for CCCCCOC(C)=O [pentyl ethanoate]
A) 812.4

###

Settings: 388.15 K; 20000 kPa; Liquid
Assignment: determine reported mass density for the given compounds.
Kindly provide the numeric value in kg/m3 only, without the unit symbol.

Q) Provide only the value of recorded mass density for CCCOC(C)=O [propyl ethanoate]
A) 808.5

Q) Provide only the value of recorded mass density for CCCCCOC(C)=O [pentyl ethanoate]
A) 808.1

Q) Provide only the value of recorded mass density for CCCCOC(C)=O [butyl ethanoate]
A) 808.6

Q) Provide only the value of recorded mass density for CCOC(C)=O [ethyl acetate]
A) 813

###

Conditions: 323.15 K; 25000 kPa; Liquid
Assignment: determine reported mass density for the given compounds.
Kindly provide the numeric value in kg/m3 only, without the unit symbol.

Q) Provide only the value of recorded mass density for CCOC(C)=O [ethyl acetate]
A) 889.2

Q) Provide only the value of recorded mass density for CCCCCOC(C)=O [pentyl ethanoate]
A) 868.1

Q) Provide only the value of recorded mass density for CCCCOC(C)=O [butyl ethanoate]
A) 872.3

Q) Provide only the value of recorded mass density for CCCOC(C)=O [propyl ethanoate]
A) 877.9

###

Conditions: 383.15 K; 1000 kPa; Liquid
± gives the expanded uncertainty stated by the source.
Assignment: determine reported mass density for the given molecules.

Q) Provide only the value of recorded mass density for CCCOC(C)=O [propyl ethanoate]
A) 783.6 ± 3.5 kg/m3

Q) Provide only the value of recorded mass density for CCOC(C)=O [ethyl acetate]
A) 784.8 ± 3.3 kg/m3

Q) Provide only the value of recorded mass density for CCCCOC(C)=O [butyl ethanoate]
A) 786.7 ± 3.3 kg/m3

Q) Provide only the value of recorded mass density for CCCCCOC(C)=O [pentyl ethanoate]
A) 788.1 ± 3.5 kg/m3

###

Assignment: determine reported mass density for the given compounds.
Conditions: 318.15 K; 2000 kPa; Liquid
Kindly provide the numeric value in kg/m3 only, without the unit symbol.

Q) Provide only the value of recorded mass density for CCCCCOC(C)=O [pentyl ethanoate]
A) 853.5

Q) Provide only the value of recorded mass density for CCCCOC(C)=O [butyl ethanoate]
A) 856.7

Q) Provide only the value of recorded mass density for CCCOC(C)=O [propyl ethanoate]
A) 860.9

Q) Provide only the value of recorded mass density for CCOC(C)=O [ethyl acetate]
A) 871

###

Details: 303.15 K; 15000 kPa; Liquid
measured-attribute: mass density (kg/m3)
Kindly provide the numeric value in kg/m3 only, without the unit symbol.

Q) Provide only the value of recorded mass density for CCOC(C)=O [ethyl acetate]
A) 902

Q) Provide only the value of recorded mass density for CCCOC(C)=O [propyl ethanoate]
A) 889.5

Q) Provide only the value of recorded mass density for CCCCOC(C)=O [butyl ethanoate]
A) 882.8

Q) Provide only the value of recorded mass density for CCCCCOC(C)=O [pentyl ethanoate]
A) 878.1
